These entries and their values trace back to patent US11230526B1.

- Test Target: long form of human GPR120 (Homo sapiens)
- Sequence (Q5NUL3 1-377 isoform Q5NUL3-1): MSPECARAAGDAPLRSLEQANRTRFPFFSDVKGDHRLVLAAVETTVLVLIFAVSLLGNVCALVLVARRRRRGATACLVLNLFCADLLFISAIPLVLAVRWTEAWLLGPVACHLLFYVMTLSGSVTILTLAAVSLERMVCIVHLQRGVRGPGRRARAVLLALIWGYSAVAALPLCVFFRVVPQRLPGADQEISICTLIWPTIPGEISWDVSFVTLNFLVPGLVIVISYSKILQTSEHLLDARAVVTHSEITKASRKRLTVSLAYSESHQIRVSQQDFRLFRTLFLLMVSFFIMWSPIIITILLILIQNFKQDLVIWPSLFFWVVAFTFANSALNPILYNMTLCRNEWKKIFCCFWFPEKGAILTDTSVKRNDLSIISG
- Sequence (P32121 whole entry partner): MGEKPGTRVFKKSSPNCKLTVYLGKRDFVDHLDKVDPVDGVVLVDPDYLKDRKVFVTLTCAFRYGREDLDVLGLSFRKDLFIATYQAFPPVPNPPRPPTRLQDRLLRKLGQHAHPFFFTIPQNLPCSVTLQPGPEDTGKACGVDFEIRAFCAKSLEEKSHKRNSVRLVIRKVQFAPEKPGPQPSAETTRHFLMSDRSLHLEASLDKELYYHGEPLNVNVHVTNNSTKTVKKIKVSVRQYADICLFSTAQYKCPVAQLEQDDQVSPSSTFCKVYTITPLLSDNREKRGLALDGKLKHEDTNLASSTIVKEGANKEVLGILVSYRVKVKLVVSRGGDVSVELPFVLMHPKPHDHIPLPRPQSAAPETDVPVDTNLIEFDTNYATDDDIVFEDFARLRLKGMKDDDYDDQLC
- Assay Comment: Human GPR120 DiscoveRx PathHunter Beta-Arrestin assay, Procedure β-arrestin A
pEC50: −log10 of the molar value.
Examples of compounds with documented pEC50 follow.

{"Compound": "Cc1cc(CCC(=O)O)ccc1OCC1=C(c2cnn(C)c2)CCC(F)(F)C1", "pEC50": 5.78}
{"Compound": "Cc1ccc(C2=C(COc3ccc(CCC(=O)O)cc3Br)CCC2)cc1", "pEC50": 7.46}
{"Compound": "O=C(O)CCc1cc(F)c(OCC2=C(c3ccc(Cl)cc3)CCC2C(F)(F)F)c(F)c1 (stereo not shown)", "pEC50": 6.51}
{"Compound": "Cc1cc(CCC(=O)O)cc(F)c1OCC1=C(c2ccc(F)cc2)CC(F)(F)C1", "pEC50": 6.44}
{"Compound": "Cc1c(CCC(=O)O)ccc(OCC2=C(c3ccc(Cl)c(F)c3)CCC(F)(F)C2)c1C", "pEC50": 5.42}
{"Compound": "O=C(O)CCc1cc(F)c(OCC2=C(c3ccc(F)c(F)c3)CCC(F)(F)C2)c(F)c1", "pEC50": 6.27}
{"Compound": "Cc1ccc(C2=C(COc3ccc(CCC(=O)O)c(C)c3C)CC(F)(F)C2)cc1F", "pEC50": 7.49}
{"Compound": "O=C(O)CCc1ccc(OCC2=C(c3ccc(F)cc3)CC(F)(F)C2)cc1", "pEC50": 6.62}
{"Compound": "CCC1CCC(c2ccc(Cl)cc2)=C(COc2ccc(CCC(=O)O)c(C)c2C)C1 (stereo not shown)", "pEC50": 6.72}
{"Compound": "Cc1c(CCC(=O)O)ccc(OCC2=C(c3ccco3)CCC2)c1C", "pEC50": 6.96}
{"Compound": "Cc1cc(CCC(=O)O)ccc1OCC1=C(c2ccc(Cl)cc2)CC(F)(F)CC1", "pEC50": 6.68}
{"Compound": "Cc1cc(OCC2=C(c3ccc(F)cc3)CCC(F)(F)C2)ccc1CCC(=O)O", "pEC50": 6.19}
{"Compound": "Cc1c(CCC(=O)O)ccc(OCC2=C(c3ccc(Cl)cc3)CCC(F)(F)C2)c1C", "pEC50": 6.77}
{"Compound": "Cc1cc(CCC(=O)O)ccc1OCC1=C(c2ccc(F)c(F)c2)CCC(F)(F)C1", "pEC50": 6.73}
{"Compound": "Cc1cc(OCC2=C(c3ccc(Cl)cc3)CCC(F)(F)C2)ccc1CCC(=O)O", "pEC50": 6.11}
{"Compound": "O=C(O)CCc1cc(F)c(OCC2=C(c3ccc(Cl)s3)CCC(F)(F)C2)c(F)c1", "pEC50": 6.54}
{"Compound": "Cc1c(CCC(=O)O)ccc(OCC2=C(c3ccc(F)cc3F)CCC(F)(F)C2)c1C", "pEC50": 6.80}
{"Compound": "O=C(O)CCc1cc(F)c(OCC2=C(c3ccccc3)CCC(F)(F)C2)c(F)c1", "pEC50": 6.53}
{"Compound": "O=C(O)CCc1ccc(OCC2=C(c3ccc(F)cc3)CCC2)cc1", "pEC50": 6.68}
{"Compound": "O=C(O)CCc1ccc(OCC2=C(c3ccc(F)cc3)CCC(F)(F)C2)cc1C(F)(F)F", "pEC50": 6.51}
{"Compound": "Cc1c(CCC(=O)O)ccc(OCC2=C(c3ccc(Cl)cc3)CCC(C(C)C)C2)c1C (stereo not shown)", "pEC50": 6.81}
{"Compound": "Cc1c(CCC(=O)O)ccc(OCC2=C(c3ccc(F)c(F)c3)CC(F)(F)C2)c1C", "pEC50": 7.14}
{"Compound": "Cc1c(CCC(=O)O)ccc(OCC2=C(c3ccccc3)CC(F)(F)C2)c1C", "pEC50": 6.79}
{"Compound": "COC1CCC(c2ccc(Cl)cc2)=C(COc2ccc(CCC(=O)O)c(C)c2C)C1 (stereo not shown)", "pEC50": 6.65}
{"Compound": "COc1ncc(C2=C(COc3ccc(CCC(=O)O)cc3C)CCC2)cc1F", "pEC50": 6.88}
{"Compound": "Cc1c(CCC(=O)O)ccc(OCC2=C(c3ccc(C#N)s3)CCC(F)(F)C2)c1C", "pEC50": 5.88}
{"Compound": "Cc1cc(CCC(=O)O)ccc1OCC1=C(c2ccc(Cl)c(F)c2)CCC(F)(F)C1", "pEC50": 6.30}
{"Compound": "CC(C)c1cc(OCC2=C(c3ccc(Cl)cc3)CCC2)ccc1CCC(=O)O", "pEC50": 6.14}
{"Compound": "Cc1cc(CC(C)C(=O)O)ccc1OCC1=C(c2ccc(Cl)cc2)CCC1 (stereo not shown)", "pEC50": 6.63}
{"Compound": "O=C(O)CCc1cc(F)c(OCC2=C(c3ccc(F)cc3)CC(F)(F)C2)c(F)c1", "pEC50": 6.73}
{"Compound": "Cc1ncc(C2=C(COc3ccc(CCC(=O)O)cc3C)CC(F)(F)CC2)s1", "pEC50": 6.36}
{"Compound": "COc1cc(OCC2=C(c3ccc(Cl)cc3)CCC2)ccc1CCC(=O)O", "pEC50": 6.12}
{"Compound": "O=C(O)CCc1ccc(OCC2=C(c3ccc(F)cc3)CC(F)(F)C2)c(F)c1", "pEC50": 7.08}
{"Compound": "COC1CC(COc2ccc(CCC(=O)O)c(C)c2C)=C(c2ccc(Cl)cc2)C1 (stereo not shown)", "pEC50": 6.61}
